Items are presented alongside their recorded pIC50.
# TARGET_ENTITY: ISP1-ISP2 enzyme complex (Mus musculus, UniProt Q924N9+Q99MS4)
# Construct: The native ISP enzyme complex was purified from mouse uterine tissue homogenates; from tissue; host or cells: uterus of pregnant CD1 mice (4.5-6.5 dpc)
# Sequence (Q924N9 27-274): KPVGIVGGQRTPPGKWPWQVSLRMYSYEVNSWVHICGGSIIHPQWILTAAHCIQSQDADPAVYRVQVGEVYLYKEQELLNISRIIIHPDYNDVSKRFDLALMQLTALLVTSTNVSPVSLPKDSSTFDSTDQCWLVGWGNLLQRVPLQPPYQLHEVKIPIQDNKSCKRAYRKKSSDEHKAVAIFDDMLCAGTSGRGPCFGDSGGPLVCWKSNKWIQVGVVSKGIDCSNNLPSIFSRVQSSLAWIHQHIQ
# Sequence (Q99MS4 18-279): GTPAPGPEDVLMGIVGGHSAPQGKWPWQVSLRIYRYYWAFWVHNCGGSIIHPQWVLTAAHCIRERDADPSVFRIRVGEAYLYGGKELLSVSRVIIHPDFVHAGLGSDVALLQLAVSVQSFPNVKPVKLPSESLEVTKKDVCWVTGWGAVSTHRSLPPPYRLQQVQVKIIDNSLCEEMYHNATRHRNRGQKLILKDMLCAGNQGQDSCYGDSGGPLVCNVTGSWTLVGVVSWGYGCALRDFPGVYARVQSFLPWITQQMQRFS
# EXPERIMENT_NOTES: Inhibition of proteolytic activity of ISP enzyme complex, chromogenic assay with BAPNA as substrate
# Assay type: biochemical
# EXPERIMENTAL_PARAMETERS: 4 mM BAPNA substrate, 25 mM Tris.Cl pH 8.0, room temperature; read-out: IC50%
Counter-ions that a name gives are not always drawn.
Recall that pIC50 is obtained by taking minus log10 of the concentration measured in molar.

Use these answered entries as a reference point.
[[record]]
molecule = "Cc1ccc(S(=O)(=O)N[C@@H](CCCCN)C(=O)CCl)cc1.Cl [TLCK]"
target_entity = "ISP1-ISP2 enzyme complex (Mus musculus, UniProt Q924N9+Q99MS4)"
result_number = 2.10

[[record]]
molecule = "N=C(N)c1ccc(CS(=O)(=O)F)cc1 [APMSF]"
target_entity = "ISP1-ISP2 enzyme complex (Mus musculus, UniProt Q924N9+Q99MS4)"
result_number = 1.71

[[record]]
molecule = "N=C(N)c1ccc2[nH]c(Cc3nc4cc(C(=N)N)ccc4[nH]3)nc2c1 [BABIM, Bis (5-amidino-2-benzimadozolyl) methane]"
target_entity = "ISP1-ISP2 enzyme complex (Mus musculus, UniProt Q924N9+Q99MS4)"
result_number = 3.12


Next item in the queue.
input: Value lookup for pIC50; key = CCOC(=O)c1ccc(OC(=O)CCCCCNC(=N)N)cc1 [Gabexate mesylate]
output: 2.74

###

# TARGET_ENTITY: ISP1-ISP2 enzyme complex (Mus musculus, UniProt Q924N9+Q99MS4)
# Construct: The native ISP enzyme complex was purified from mouse uterine tissue homogenates
# EXPERIMENT_NOTES: Inhibition of proteolytic activity of ISP enzyme complex, chromogenic assay with BAPNA as substrate
# EXPERIMENTAL_PARAMETERS: from IC50 by Cheng and Prusoff equation; BAPNA substrate; read-out: Dissociation Constant (Ki)
Where a name gives a salt, the structure may show the parent alone.
READOUT_NAME: log10 of Ki (log10 of the value in µM)
Values below are the log10 of the recorded Ki, with µM as the unit.

input: Value lookup for log10 of Ki; key = N=C(N)c1ccc(CS(=O)(=O)F)cc1 [APMSF]
output: 3.73

input: Value lookup for log10 of Ki; key = Cc1ccc(S(=O)(=O)N[C@@H](CCCCN)C(=O)CCl)cc1.Cl [TLCK]
output: 3.34

input: Value lookup for log10 of Ki; key = N=C(N)c1ccc2[nH]c(Cc3nc4cc(C(=N)N)ccc4[nH]3)nc2c1 [BABIM, Bis (5-amidino-2-benzimadozolyl) methane]
output: 2.31

input: Value lookup for log10 of Ki; key = CCOC(=O)c1ccc(OC(=O)CCCCCNC(=N)N)cc1 [Gabexate mesylate]
output: 2.69

input: Value lookup for log10 of Ki; key = N=C(N)c1ccccc1 [Benzamidine hydrochloride]
output: 4.65
